Sourced from ChEMBL document CHEMBL1130949

molecules and their reported pIC50
- MEASUREMENT DESCRIPTION: Binding affinity against vitronectin receptor was determined
pIC50: −log10 of the molar value.
RECORDED ENDPOINT: pIC50

1. CC(=O)N[C@@H](CC(=O)O)C(=O)Nc1ccc(-c2ccccc2C(=O)O)cc1 ... 4.28
2. CC(=O)N[C@@H](CC(=O)O)C(=O)Nc1ccc(-c2ccccc2C(=O)N[C@@H](CCCN=C(N)N)C(=O)O)cc1 ... 4.47
3. CC(=O)N[C@@H](CC(=O)O)C(=O)Nc1ccc(-c2ccc(C(=O)O)cc2)cc1 ... 4.02

---

- MEASUREMENT DESCRIPTION: Binding affinity against vitronectin receptor was determined
molecules and their reported IC50
RECORDED ENDPOINT: IC50

1. CC(=O)N[C@@H](CC(=O)O)C(=O)Nc1cccc(-c2ccccc2C(=O)O)c1 ... 46 µM
2. CC(=O)N[C@@H](CC(=O)O)C(=O)Nc1ccc(-c2cccc(C(=O)O)c2)cc1 ... 31 µM
3. CC(=O)N[C@@H](CC(=O)O)C(=O)Nc1ccc(-c2ccccc2C(N)=O)cc1 ... 96 µM
4. CC(=O)N[C@H](CC(=O)O)C(=O)Nc1ccc(-c2ccccc2C(=O)O)cc1 ... > 500 µM
